# Test system: lethal effects of adrenaline
# Test Description: adrenolytic activity in vivo in the rat (reduction of lethal effects of adrenaline)
# Applied Conditions: intravenous administration (i.v.), read-out: ID50 (i.v.): dose reducing 50% of the lethal effects of adrenaline
Values of ED50 strictly less than 0.07 mg/kg map to TRUE, and values of at least 0.07 mg/kg map to FALSE.

* CO[C@]12C[C@@H](COC(=O)c3[nH]c(C)c(Br)c3C)CN(C)[C@@H]1Cc1cn(C)c3cccc2c13 | FALSE
* CO[C@]12C[C@@H](COC(=O)c3ccc[nH]3)CN(C)[C@@H]1Cc1cn(C)c3cccc2c13 | TRUE
* CO[C@]12C[C@@H](COC(=O)c3cccn3C)CN(C)[C@@H]1Cc1cn(C)c3cccc2c13 | TRUE

Please determine if COc1c[nH]cc1C(=O)OC[C@H]1CN(C)[C@@H]2Cc3cn(C)c4cccc(c34)[C@@]2(OC)C1 is below 0.07 mg/kg in terms of ED50.
FALSE

Please determine if CO[C@]12C[C@@H](COC(=O)c3[nH]c(C)cc3C)CN(C)[C@@H]1Cc1cn(C)c3cccc2c13 is below 0.07 mg/kg in terms of ED50.
TRUE

Please determine if CCOC(=O)c1c(C)[nH]c(C(=O)OC[C@H]2CN(C)[C@@H]3Cc4cn(C)c5cccc(c45)[C@@]3(OC)C2)c1C is below 0.07 mg/kg in terms of ED50.
FALSE

Please determine if CO[C@]12C[C@@H](COC(=O)c3c(C)cc(C)n3C)CN(C)[C@@H]1Cc1cn(C)c3cccc2c13 is below 0.07 mg/kg in terms of ED50.
FALSE

Please determine if CO[C@]12C[C@@H](COC(=O)c3cc[nH]c3)CN(C)[C@@H]1Cc1cn(C)c3cccc2c13 is below 0.07 mg/kg in terms of ED50.
TRUE

----------
Can you tell me ED50 for the items I'm about to list?
# Test system: lethal effects of adrenaline
# Test Description: adrenolytic activity in vivo in the rat (reduction of lethal effects of adrenaline)
# Applied Conditions: intravenous administration (i.v.), read-out: ID50 (i.v.): dose reducing 50% of the lethal effects of adrenaline
Give bare numbers, in mg/kg.

Example molecules with recorded ED50:
- CO[C@]12C[C@@H](COC(=O)c3cc[nH]c3C)CN(C)[C@@H]1Cc1cn(C)c3cccc2c13: 0.05
- CO[C@]12C[C@@H](COC(=O)c3c(C)c[nH]c3C)CN(C)[C@@H]1Cc1cn(C)c3cccc2c13: 0.1

Let us move to another entry and its ED50.
Please report the recorded ED50 for CN1C[C@H](C(=O)N[C@]2(C)O[C@@]3(O)[C@@H]4CCCN4C(=O)[C@H](Cc4ccccc4)N3C2=O)C[C@@H]2c3cccc4[nH]cc(c34)C[C@H]21 [Dihydroergotamine, reference compound] .
0.08
